Quick reference: GI50 of the listed items.
- Test system: NCI/ADR-RES ovarian
- Assay: NCI tumour cell line growth inhibition, 48 h

# annotated cases, reported GI50 shown
>>> recorded_measurement("COc1cc2c[n+](C)c3c4cc(OC)c(OC)cc4ccc3c2cc1OC")
"> 100 µM"
>>> recorded_measurement("C[C@@H](Oc1cc(-n2cnc3ccc(OC[C@@H](O)CO)cc32)sc1C(N)=O)c1ccccc1Cl")
"1.64 µM"
>>> recorded_measurement("C=C(C)[C@@H]1CC[C@]2(C(=O)OCCOCCOCC[P+](c3ccccc3)(c3ccccc3)c3ccccc3)CC[C@]3(C)[C@H](CC[C@@H]4[C@@]5(C)CC[C@H](OC(=O)C(Cl)Cl)C(C)(C)[C@@H]5CC[C@]43C)[C@@H]12")
"1.54 µM"
>>> recorded_measurement("COc1ccc(OC)c(/C=C/c2nc(SCc3ccccc3)n(-c3ccc(Cl)cc3)n2)c1")
"2.25 µM"
>>> recorded_measurement("Cc1cc(=O)oc2cc(OC/C=C3\\CCC(=O)O3)ccc12")
"23 µM"

Continue with the molecule presented below.
Query block: What value of GI50 on NCI/ADR-RES ovarian does "Nc1c(F)cc(-c2nc3cc(F)ccc3[se]2)cc1Br" have?
Result block: 38.9 µM

---

Let's look at some compounds and their measured TGI.
- Test system: KM12 colon
- Assay: NCI tumour cell line growth inhibition, 48 h

Some compounds with recorded TGI:
>>> recorded_measurement("CCOC(=O)C(Cc1ccc(N(CCCl)CCCl)cc1)NC(=O)CCCN1C(=O)CN=C(c2ccccc2)c2cc(Cl)ccc21 (stereo not drawn)")
"> 100 µM"
>>> recorded_measurement("CCCCCCCCC/C=C1/CC(CO)(COC(=O)c2ccccc2)OC1=O (stereo not drawn)")
"30.6 µM"

Query block: Recorded TGI for "COc1cc2c(cc1C)NC(=O)/C2=C\c1c[nH]c2ccccc12" , please?
Result block: 21.1 µM

Query block: Ok, now "COc1cc(C=O)cc(O)c1O"
Result block: > 100 µM

Query block: Continue with "Cn1c2ccccc2c2c(=O)n(CCCC(=O)OC(=NC3CCCCC3)NC3CCCCC3)c3c(-c4ccccc4)nnn3c21"
Result block: > 100 µM

Query block: Check "COc1cc(/C=C/C(=O)c2c(C)nc3ccccc3c2C)ccc1OCCCN1CCN(C(=O)c2ccco2)CC1" too.
Result block: 24.3 µM

---

Known TGI of a selection of compounds
- System: MDA-MB-231 breast
- Assay: NCI tumour cell line growth inhibition, 48 h

Examples with their reported TGI follow.
>>> recorded_measurement("C/C(Cc1ccc2c(c1)OCO2)=N\\NC(=O)C(C)Sc1nnc(SC(C)C(=O)N/N=C(\\C)Cc2ccc3c(c2)OCO3)s1 (stereo not drawn)")
"> 100 µM"
>>> recorded_measurement("NC(Cc1ccc(B(O)O)cc1)C(=O)NC(CO)CO (stereo not drawn)")
"> 100 µM"

Please turn your attention to the following entry.
Query block: Would you kindly share the measured TGI for COc1ccc2c(c1OC(C)=O)C1=CC(=O)CCC13CCNC3C2 (stereo not drawn) ?
Result block: > 100 µM

---

- Test system: EKVX NSCLC
- Assay: NCI tumour cell line growth inhibition, 48 h
Quantity kind: TGI

Worked cases, TGI given:
>>> recorded_measurement("CCCCN(CCCC)CCCn1cnc2ncccc2c1=O")
"> 100 µM"
>>> recorded_measurement("S=C=NC1CCC(c2cc3ccccc3s2)(N2CCCCC2)CC1 (centres undefined)")
"4.69 µM"
>>> recorded_measurement("CCOC(=O)C(OP(=O)(OCC)OCC)C(F)(F)F (centres undefined)")
"> 100 µM"
>>> recorded_measurement("Cn1cnc([N+](=O)[O-])c1Sc1nccc(=O)[nH]1")
"> 100 µM"
>>> recorded_measurement("CCCCCCCCC/C=C1/CC(CO)(COC(=O)c2ccccc2)OC1=O (centres undefined)")
"28.2 µM"
>>> recorded_measurement("CN1CCN(Cc2ccc(NC(=O)c3cncc(C#Cc4cnc(N)c5cnccc45)c3)cc2C(F)(F)F)CC1")
"4.4 µM"
>>> recorded_measurement("C/C(=N/N=C(N)N)c1ccc(NC(=O)Nc2ccc(/C(C)=N/N=C(N)N)cc2)cc1")
"49 µM"
>>> recorded_measurement("O=C(O[C@H]1CCN2C[C@H]3C[C@H](CN4C(=O)CCC[C@H]34)[C@@H]2C1)c1ccc(O)cc1")
"> 100 µM"

Would you kindly look at the next entry?
Query block: Need TGI of "COc1ccc(C(=O)/C=C/c2ccc(OCC(=N)N)cc2)cc1" , thanks.
Result block: 30.8 µM

---

- Tested on: SF-268 CNS
- Assay: NCI tumour cell line growth inhibition, 48 h
Quantity kind: TGI

>>> recorded_measurement("Nc1nc(=S)n(-c2ccc(Cl)cc2)c2nc3ccccc3cc12")
"> 100 µM"

Query block: Which TGI value is on record for "CCCC(=O)NC(Nc1ccc(S(=O)(=O)Nc2ccc(OC)nn2)cc1)(C(F)(F)F)C(F)(F)F" ?
Result block: > 100 µM

Query block: Likewise for CC1(C)C2CCC(O)(C2)C1N (stereo not drawn) ?
Result block: > 100 µM

---

Measured TGI values are reported for all entries that follow.
- Tested on: KM12 colon
- Assay: NCI tumour cell line growth inhibition, 48 h

These solved cases illustrate the format of a correct answer.
>>> recorded_measurement("O=C1CC2SC(COCc3ccccc3)(CCN2Cc2ccccc2)C1 (centres undefined)")
"> 100 µM"
>>> recorded_measurement("CC[C@H](C)[C@H](NC(=O)[C@@]1(O)[C@H](O)[C@]2(CC)C=CCN3CC[C@@]4(c5cc(Br)c(OC)cc5N(C)[C@@H]14)[C@@H]32)C(=O)OC")
"> 100 µM"
>>> recorded_measurement("O=C(N/N=C/C=C/c1ccc([N+](=O)[O-])o1)c1ccc(C(=O)N/N=C/C=C/c2ccc([N+](=O)[O-])o2)cc1")
"> 100 µM"

Then there is this molecule:
Query block: Look at this molecule and give its reported TGI. CCCCOC(=O)c1cc(C(=CCC[C@H]2CC[C@@]3(C)[C@@H](CC[C@@H]4[C@@H]3CC[C@]3(C)[C@@H](C(C)CCCC(C)C)CC[C@@H]43)C2)c2cc(Cl)c(O)c(C(=O)OCCCC)c2)cc(Cl)c1O (some centres undefined)
Result block: > 50 µM

---

In this section, each of the molecules is paired with its reported TGI.
- Tested on: OVCAR-5 ovarian
- Assay: NCI tumour cell line growth inhibition, 48 h

Below, each entry is followed by its recorded TGI result.
>>> recorded_measurement("COC(=O)C(=O)C(C(=O)C(=O)Nc1cc(C)ccc1C)c1nc2ccc(C(=O)c3ccccc3)cc2[nH]c1=O (stereo not given)")
"> 100 µM"
>>> recorded_measurement("COC1/C=C/C(C)C(C(C)C(OC)C(C)CCC(=O)C(C)C(CC(=O)O)OC)OC(=O)/C=C/C=C(\\C)CC(OC)CC2=CC(=O)O[C@H](C2)C(C)C(OC)CC(OC)/C=C/C(C)C(OC)C1 (stereo not given in full)")
"> 4.35 µM"
>>> recorded_measurement("O=[N+]([O-])c1cccc(N=Nc2c(O)ccc3ccccc23)c1")
"> 100 µM"
>>> recorded_measurement("COc1ccc(OC)c2c3c([nH]c12)C(=O)Nc1nc(N)nc(N)c1C3")
"> 100 µM"

--- query ---
Query block: // TGI lookup, key: COC(=O)C(/C(=N\NC(N)=S)C(=O)Nc1ccccc1[N+](=O)[O-])c1cnc2ccccc2n1 (stereo not given)
Result block: > 100 µM

---

TGI overview
- Tested on: SF-295 CNS
- Assay: NCI tumour cell line growth inhibition, 48 h

These solved cases illustrate the format of a correct answer.
>>> recorded_measurement("N#Cc1c(O)c2ccccc2[nH]c1=O")
"> 100 µM"
>>> recorded_measurement("CN(C)c1ccc2nc(CC(O)(C(F)(F)F)C(F)(F)F)ccc2c1")
"> 10 µM"
>>> recorded_measurement("CC(=O)/C(C=Nc1c(C)n(C)n(C)c1=O)=C(/O)c1ccccc1")
"> 50 µM"
>>> recorded_measurement("CCCCC(=O)Nc1ccc2c(C)cc(-c3ccc(-c4cc(-c5ccc(C)cc5)cc(-c5ccc(-c6cc(C)c7ccc(NC(=O)CCCC)nc7n6)cc5)n4)cc3)nc2n1")
"> 100 µM"
>>> recorded_measurement("O=C1c2ccccc2C(=O)N1CC(CN1C(=O)c2ccccc2C1=O)(C(=O)OCc1ccccc1)C(=O)OCc1ccccc1")
"> 100 µM"

Query block: Fill blank: measured TGI of the molecule "O=C1O/C(=C\c2ccc(O)cc2)C(c2ccc(O)c(Cl)c2)=C1Cl" is ____.
Result block: > 100 µM

Query block: Quick one: "Cn1c2ccccc2c2c(=O)n(CCCC(=O)OC(=NC3CCCCC3)NC3CCCCC3)c3c(-c4ccccc4)nnn3c21"
Result block: > 100 µM

Query block: Queued: "O=c1oc2ccc([N+](=O)[O-])cc2cc1Br"
Result block: > 100 µM

Query block: Now the same for "Cc1cc(=O)oc2cc(OC/C=C3\CCC(=O)O3)ccc12"
Result block: > 100 µM

Query block: Now give it for "COc1ccc2nc(NC(=O)C(=O)NNC(=O)c3ccncc3)sc2c1" too.
Result block: > 100 µM

Query block: Subsequent entry: "CCCCCCCCCCCCCB(O)O"
Result block: > 100 µM

Query block: What would you report for CCCNC(=O)N(C)C(=O)N1N=C(c2ccccc2)C1c1ccccc1 (centres undefined) ?
Result block: > 100 µM
